# System: M14 melanoma
# protocolDetails: NCI-60 one-dose screen, 48 h (100 = growth as untreated, 0 = no growth, -100 = all killed)
# conditionDetails: 10 µM unless noted
About 83,000 compounds went through this panel and 20% of them were active in at least one assay; those are over-represented in the sample as a whole.
assayMetric: growth (%)
Give bare numbers, in %.

{"columns": ["chemicalStructure", "numericReadout"],
 "data": [
  ["CO[C@H]1CC[C@@]2(C)C(=CC[C@@H]3[C@@H]2CC[C@]2(C)C(=O)C(=O)C[C@@H]32)C1", 102]
]}

Look at each molecule and report its growth.
1. COc1cc([C@@H]2c3cc4c(cc3[C@H](OC(C)=O)[C@H]3COC(=O)[C@@H]23)OCO4)cc(OC)c1OC
2. COc1cc(/C=C/[N+](=O)[O-])c([N+](=O)[O-])cc1OC
3. COC(=O)[C@@H](C)C[C@H](Cc1ccccc1)NC(=O)c1csc([C@@H](C[C@H](C(C)C)N(C)C(=O)[C@@H](NC(=O)[C@H]2CCCCN2C)C2CC2)OC(C)=O)n1

-15.2
7.35
10.8

Values were extracted from PubChem BioAssay (NCI).
